tested on: SK-OV-3 ovarian; experiment: NCI-60 one-dose screen, 48 h (100 = growth as untreated, 0 = no growth, -100 = all killed); details: 10 µM unless noted
About 83,000 compounds went through this panel and 20% of them were active in at least one assay; those are over-represented in the sample as a whole.

>  <COMPOUND>
O=C(NOCCO)c1cc(CN2OCCCC2=O)c(F)c(F)c1Nc1ccc(I)cc1F

>  <growth (%)>
52.3

$$$$
>  <COMPOUND>
Nc1c(C(=O)c2ccccc2)sc2nc(-c3cccs3)ccc12

>  <growth (%)>
35.4

$$$$
>  <COMPOUND>
CCn1c(-c2nonc2N)nc2c(C#CC(C)(C)O)ncc(OC[C@H]3CCCNC3)c21

>  <growth (%)>
15

$$$$
>  <COMPOUND>
CC1(O)CC(c2nc(-c3ccc4ccc(-c5ccccc5)nc4c3)c3c(N)nccn23)C1 (centres undefined)

>  <growth (%)>
13.5

$$$$
>  <COMPOUND>
Cc1sc2c(c1C)c(=O)nc1c(-c3nc(-c4ccccc4)cs3)n[nH]n12

>  <growth (%)>
89.6

$$$$
>  <COMPOUND>
O=[N+]([O-])c1cc(Br)cc2c1[nH]c1ccc(Br)cc12

>  <growth (%)>
34.5

$$$$
>  <COMPOUND>
Cc1ccc(C(=O)Nc2ccc(CN3CCN(C)CC3)c(C(F)(F)F)c2)cc1C#Cc1cnc2cccnn12

>  <growth (%)>
-94

$$$$
>  <COMPOUND>
CCN(CC)CCNc1ccc(N=Nc2cnc3ccccc3c2)c2ccccc12

>  <growth (%)>
-77.2

$$$$
>  <COMPOUND>
CCCCOc1nc2cc(Cl)ccc2cc1/C=C/c1cc(/C=C/c2cc3ccc(Cl)cc3nc2OCCCC)n(-c2ccccc2)n1

>  <growth (%)>
51.5

$$$$
>  <COMPOUND>
Cc1ccsc1C(NC(=O)c1ccccc1)c1cc(Cl)c2cccnc2c1O (centres undefined)

>  <growth (%)>
16

$$$$
>  <COMPOUND>
CNC(=O)c1cc(Oc2ccc(NC(=O)Nc3cc(C(C)(C)C)nn3-c3ccc4ncccc4c3)c(F)c2)ccn1

>  <growth (%)>
-13.3

$$$$
>  <COMPOUND>
C=C1C(=O)O[C@H]2[C@H]1CC/C(CNC(=O)c1cc3cc(OC)ccc3[nH]1)=C\CC[C@@]1(C)O[C@@H]21

>  <growth (%)>
59.3

$$$$
>  <COMPOUND>
Cc1cc(Nc2ncnc3ccc(NC4=NC(C)(C)CO4)cc23)ccc1Oc1ccn2ncnc2c1

>  <growth (%)>
14.6

$$$$
>  <COMPOUND>
O=C(N/N=C/c1ccc(Cl)cc1)c1cc(-c2cc3ccccc3o2)nn1-c1ccccc1

>  <growth (%)>
94

$$$$
>  <COMPOUND>
CCc1ccc(/C=C/c2ccc(O)c3ncccc23)[n+](C)c1

>  <growth (%)>
76.7

$$$$
>  <COMPOUND>
NC1(C(=O)N[C@@H](CCO)c2ccc(Cl)cc2)CCN(c2ncnc3[nH]ccc23)CC1

>  <growth (%)>
-6.71

$$$$
>  <COMPOUND>
Cc1nn(-c2nc3ccccc3[nH]2)c2c1C(c1ccc(OCc3ccc(F)cc3)cc1)CC(=O)N2 (centres undefined)

>  <growth (%)>
49.1

$$$$
>  <COMPOUND>
Cc1ccc(NC(=O)NC(=O)CSc2nc3ccccc3nc2C)cc1

>  <growth (%)>
56.2

$$$$
>  <COMPOUND>
C=CC(=O)Nc1cccc(Oc2nc(Nc3ccc(N4CCN(C)CC4)cc3)nc3ccsc23)c1

>  <growth (%)>
-2.6

$$$$
